Values were extracted from PubChem BioAssay.

- ASSAYED SYSTEM: Short transient receptor potential channel 4 (Mus musculus)
- ASSAY PROTOCOL: calcium flux activators in TRPC4/5HT1a cells, counter-screen for TRPC4 activator project, cell-based, second counter screen, HEK293 TRPC4/5HT1a, Fluo-4 (AID 434977)
- RUN CONDITIONS: Fluo-4 calcium flux, at 10 µM
Active and inactive are the calls of the source.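 Rule for the calls: active = calcium signal rise above buffer-control mean plus 5 SD in both duplicates, and also a hit in the primary screen; inactive = the rest.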
Outcome (select one): active, inactive

A selection of reference data follows.
>>> classification("CCCN1Cc2cccc(C(=O)N3CCN(c4cc(Cl)ccc4C)CC3)c2C1=O")
"inactive"
>>> classification("COc1cc(=O)n2c(-c3ccccc3)csc2n1")
"inactive"
>>> classification("Cc1ccc(OCC(=O)NNC(=S)NC(=O)c2ccc(Br)o2)c(C)c1")
"active"
>>> classification("O=C(COC(=O)C1CC1)Nc1nc(-c2ccc(F)c(F)c2)cs1")
"inactive"
>>> classification("CCOC(=O)C1(CC2CC2)CCN(Cc2cnc(-c3ccccc3C)nc2)CC1")
"inactive"
>>> classification("CCCCCCc1cc2cc(-c3nnc(-c4cc(OC)c(OC)c(OC)c4)o3)c(=O)oc2cc1O")
"inactive"
>>> classification("Cc1ccc(Cn2c(=N)c(C(=O)NC3CCCCC3)cc3c(=O)n4ccccc4nc32)cc1")
"inactive"
>>> classification("CC(C)(C)c1ccc(-c2nc3cc(N)ccc3o2)cc1")
"inactive"
>>> classification("Cc1nn(-c2nc3ccccc3n2Cc2ccccc2)c2c1C(=O)CC(C)(C)C2")
"inactive"
>>> classification("O=C(O)c1ccc(NC(=O)c2cn(-c3ccccc3)nc2-c2ccc(Br)cc2)cc1")
"inactive"

In this assay, the call recorded for `O=C(COc1ccc(Cl)cc1)Nc1ccc(C(=O)O)cc1NC(=O)COc1ccc(Cl)cc1` was what? inactive

In this assay, the call recorded for `CCOc1cc(/C=C(\C#N)C(=O)Nc2cccc(C(=O)O)c2)cc(Br)c1OC(=O)c1ccc(OC)cc1` was what? inactive

In this assay, the call recorded for `C=CCc1cc(Cl)ccc1OCCCn1ccnc1` was what? inactive
